- test.description: chemical genetic growth profiling, strain panel (AID 1159580);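 note: tested at 20 µM; growth read once vehicle control cultures reached saturation at 30 °C; lower values mean less growth of the strain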
- assay.setup: S. cerevisiae deletion strains, growth OD, locus YNL250W, strain rad50
About 2,000 (36%) of roughly 5,500 compounds were called active. About 18% were inconclusive and are not listed. Cut-off read from the data, not from the text of the source: active = normalized growth mostly below about 0.91 (no sharp cut-off); inconclusive = no clear call, values can overlap the other calls; inactive = mostly above about 0.92. Some of the results follow.
A correct response names exactly one class from yes = active, no = inactive

Query :: Identify the outcome logged in this assay for the compound shown: COC(=O)c1c(C)c2c(c(C)c1O)OC(=O)c1c(C)c(Cl)c(O)c(Cl)c1O2
Result :: no

Query :: Identify the outcome logged in this assay for the compound shown: CC(=O)O[C@@H]1C=C[C@@]2(C)C(C[C@@H](OC(C)=O)[C@@]3(C)C4=CC(=O)O[C@@H](c5ccoc5)[C@]4(C)CCC23)C1(C)C (some centres not stated)
Result :: yes

Query :: Identify the outcome logged in this assay for the compound shown: CCCSc1ccc2nc(NC(=O)OC)[nH]c2c1
Result :: no

Query :: Identify the outcome logged in this assay for the compound shown: N[C@@H](CCC(=O)N[C@@H](CS)C(=O)NCC(=O)O)C(=O)O
Result :: no

Query :: Identify the outcome logged in this assay for the compound shown: CC(C)CCCC(C)C1CCC2C3CC[C@H]4C[C@@H](O)CC[C@]4(C)C3CC[C@]12C (some centres not stated)
Result :: no

Query :: Identify the outcome logged in this assay for the compound shown: CC1(C)CC2C1CC[C@]1(CBr)CCC3C(CC(=O)O)C(=O)O[C@@]32C1 (some centres not stated)
Result :: no

Query :: Identify the outcome logged in this assay for the compound shown: O=C(OCc1ccccc1)c1ccccc1
Result :: no

Query :: Identify the outcome logged in this assay for the compound shown: CC(C)c1ccc2c(c1)CCC1[C@](C)(CN)CCC[C@]21C (some centres not stated)
Result :: no

Query :: Identify the outcome logged in this assay for the compound shown: O=C1NC(O)=NC1(c1ccccc1)c1ccccc1
Result :: no

Query :: Identify the outcome logged in this assay for the compound shown: NCC(N)C(=O)c1ccccc1 (configuration not stated)
Result :: no

Query :: Identify the outcome logged in this assay for the compound shown: C[C@H](CCC(=O)O)[C@H]1CCC2C3C(=O)CC4CC(=O)CC[C@]4(C)C3CC(=O)[C@@]21C (some centres not stated)
Result :: no

Query :: Identify the outcome logged in this assay for the compound shown: COc1ccccc1OCC(O)CO (configuration not stated)
Result :: no
